The reported measurements were obtained from patent US20150232562A1.

study.system: T1, recombinant human ErbB2/Fc chimera (human, UniProt P04626 23-652)
T1 construct: bought from R&D Systems; also called rhErbB2-Fc; rhErb2-Fc; Fc part of the bought chimera not given; not described
assay: SPR (Biacore T100), Nanobody over immobilised rhErbB2-Fc
measurement.name: Kd (nM)
Answers are plain numbers, in nM.

DUMMY-35GS-2D3 (bispecific antibody, C-term myc-His6 tag; also called dummy-2D3; Dummy-2D3) EVQLVESGGGLVQAGGSLRLSCAASGRTFRSYPMGWFRQAPGKEREFVASITGSGGSTYYADSVKGRFTISRDNAKNTVYLQMNSLRPEDTAVYSCAAYIRPDTYLSRDYRKYDYWGQGTQVTVSSGGGGSGGGGSGGGGSGGGGSGGGGSGGGGSGGGGSEVQLVESGGSLVQPGGSLRLSCAASGFTFDDYAMSWVRQVPGKGLEWVSSINWSGTHTDYADSVKGRFTISRNNANNTLYLQMNSLKSEDTAVYYCAKNWRDAGTTWFEKSGSAGQGTQVTVSS | 1.77
47D5 (VHH, C-term myc-His6 tag; also called 47A8; 47A11) VHH: KVQLVESGGGLVQPGGSLRLSCAASGSIFGFNDMAWYRQAPGKQRELVALISRVGVTSSADSVKGRFTISRVNAKDTVYLQMNSLKPEDTAVYYCYMDQRLDGSTLAYWGQGTQVTVSS | 2.23
DUMMY-35GS-47D5 (bispecific antibody, control: dummy Nanobody fused N-terminally to 47D5; C-term myc-His6 tag; also called Dummy-47D5) EVQLVESGGGLVQAGGSLRLSCAASGRTFRSYPMGWFRQAPGKEREFVASITGSGGSTYYADSVKGRFTISRDNAKNTVYLQMNSLRPEDTAVYSCAAYIRPDTYLSRDYRKYDYWGQGTQVTVSSGGGGSGGGGSGGGGSGGGGSGGGGSGGGGSGGGGSEVQLVESGGGLVQPGGSLRLSCAASGSIFGFNDMAWYRQAPGKQRELVALISRVGVTSSADSVKGRFTISRVNAKDTVYLQMNSLKPEDTAVYYCYMDQRLDGSTLAYWGQGTQVTVSS | 3.21

Then there is this binder:
Any idea what Kd was measured for 2D3 (VHH, C-term myc-His6 tag; also called NB-2D3; Nb-2D3) VHH: EVQLVESGGSLVQPGGSLRLSCAASGFTFDDYAMSWVRQVPGKGLEWVSSINWSGTHTDYADSVKGRFTISRNNANNTLYLQMNSLKSEDTAVYYCAKNWRDAGTTWFEKSGSAGQGTQVTVSS ?
1.09
